Values from ChEMBL document CHEMBL1154395

// Ki collected for UniProt:P35462
RESULT TYPE: Ki (nM)

SMI: CCCN1CCO[C@@H]2c3cc(C(=O)NCc4ccc(OC)cc4)ccc3CC[C@H]21
RESULT TYPE: Ki
RELATION SIGN: >
REPORTED RESULT: 10000
--
SMI: CCCN1CCO[C@@H]2c3cc(C(=O)OC)ccc3CC[C@H]21
RESULT TYPE: Ki
RELATION SIGN: >
REPORTED RESULT: 10000
--
SMI: CCCN1CCO[C@@H]2c3cc(C(C)=O)ccc3CC[C@H]21
RESULT TYPE: Ki
RELATION SIGN: =
REPORTED RESULT: 95.5
--
SMI: CCCN1CCO[C@@H]2c3cc(C(=O)O)ccc3CC[C@H]21
RESULT TYPE: Ki
RELATION SIGN: =
REPORTED RESULT: 3310
--
SMI: CCCN1CCO[C@H]2c3cc(C(N)=O)ccc3CC[C@@H]21
RESULT TYPE: Ki
RELATION SIGN: =
REPORTED RESULT: 2450

* * *

# Organism: Homo sapiens
# EXPERIMENT: Selectivity ratio of Ki for human dopamine D2 receptor to Ki for human dopamine D3 receptor
Quick rule for you: Ratio Ki under 30 gets y, anything else gets n.

COMPOUND: CCCN1CCO[C@@H]2c3cc(C#N)ccc3CC[C@H]21
GROUP: y
//
COMPOUND: CCCN1CCO[C@@H]2c3cc(C(N)=O)ccc3CC[C@H]21
GROUP: n
//
COMPOUND: CCCN1CCOC2c3cc(C(N)=O)ccc3CCC21 (racemic)
GROUP: n
//
COMPOUND: CCCN1CCO[C@@H]2c3cc4c(cc3CC[C@H]21)CCOC4=O
GROUP: y
//
COMPOUND: CCCN1CCO[C@@H]2c3cc(C(C)=O)ccc3CC[C@H]21
GROUP: n

* * *

# TARGET UNDER TEST: D(3) dopamine receptor (Homo sapiens)
# Sequence (P35462 whole entry): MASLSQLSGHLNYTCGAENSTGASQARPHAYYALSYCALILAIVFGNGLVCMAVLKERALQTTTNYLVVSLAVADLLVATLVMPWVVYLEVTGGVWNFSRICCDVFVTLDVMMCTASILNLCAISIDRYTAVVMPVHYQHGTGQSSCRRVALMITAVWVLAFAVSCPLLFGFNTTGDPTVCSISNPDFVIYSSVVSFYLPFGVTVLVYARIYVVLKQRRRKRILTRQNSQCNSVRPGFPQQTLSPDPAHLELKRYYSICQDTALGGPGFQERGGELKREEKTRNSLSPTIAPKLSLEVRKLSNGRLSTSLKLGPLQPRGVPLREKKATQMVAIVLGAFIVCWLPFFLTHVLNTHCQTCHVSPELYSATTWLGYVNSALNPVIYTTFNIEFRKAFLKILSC
# EXPERIMENT: Activation of human dopamine D3 receptor expressed in CHO cells assessed as [35S]GTPgammaS binding by scintillation proximity assay
RESULT TYPE: EC50 (nM)

SMI: CCCN1CCO[C@@H]2c3cc(C(N)=O)ccc3CC[C@H]21
TARGET UNDER TEST: D(3) dopamine receptor (Homo sapiens)
RESULT TYPE: EC50
REPORTED RESULT: 2.29

* * *

pKi: −log10 of the molar value.
Here we list molecules with their recorded pKi when tested on UniProt:P14416.
Sequence (P14416 whole entry): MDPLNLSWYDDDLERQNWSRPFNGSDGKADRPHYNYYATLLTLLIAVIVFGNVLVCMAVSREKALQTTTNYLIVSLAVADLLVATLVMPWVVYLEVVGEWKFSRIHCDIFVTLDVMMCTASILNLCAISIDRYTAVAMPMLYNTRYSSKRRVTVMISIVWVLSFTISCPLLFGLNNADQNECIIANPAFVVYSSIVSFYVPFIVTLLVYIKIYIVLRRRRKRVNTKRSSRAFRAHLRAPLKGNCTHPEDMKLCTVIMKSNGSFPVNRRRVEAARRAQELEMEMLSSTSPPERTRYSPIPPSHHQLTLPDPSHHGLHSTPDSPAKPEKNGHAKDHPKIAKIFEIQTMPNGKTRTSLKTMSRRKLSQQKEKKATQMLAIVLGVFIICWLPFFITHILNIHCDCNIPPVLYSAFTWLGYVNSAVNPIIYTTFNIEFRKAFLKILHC

MOLECULE: CCCN1CCO[C@@H]2c3cc(C(=O)OC)ccc3CC[C@H]21
RELATION SIGN: <
pKi: 6.00

MOLECULE: CCCN1CCO[C@@H]2c3cc(C(=O)Nc4ccc(OC)cc4)ccc3CC[C@H]21
RELATION SIGN: <
pKi: 5.00

MOLECULE: CCCN1CCO[C@@H]2c3cc(C(N)=O)ccc3CC[C@H]21
RELATION SIGN: =
pKi: 5.92

MOLECULE: CCCN1CCO[C@@H]2c3cc(C#N)ccc3CC[C@H]21
RELATION SIGN: =
pKi: 6.10

MOLECULE: CCCN(CCC)CCc1cccc2c1CC(=O)N2 [ROPINIROLE]
RELATION SIGN: =
pKi: 6.16

MOLECULE: CCCN1CCO[C@@H]2c3cc4c(=O)[nH]ccc4cc3CC[C@H]21
RELATION SIGN: =
pKi: 5.92

MOLECULE: CCCN1CCOC2c3cc(C(N)=O)ccc3CCC21 (racemic)
RELATION SIGN: =
pKi: 6.12

MOLECULE: CCCN1CCO[C@@H]2c3cc4c(cc3CC[C@H]21)CN(C)C4=O
RELATION SIGN: <
pKi: 5.00
